system: OVCAR-4; experiment: NCI tumour cell line growth inhibition, 48 h
Activity calls are given as the source filed them. No stated cut-off is given here; in the data, active = GI50 up to about 1.1 µM and inactive = higher.
Return exactly one item of active, inactive

| compound | labelValue |
| --- | --- |
| CC(NC(=O)C(NC(=O)CNC(=O)OC(C)(C)C)C(C)C)C(=O)Oc1c(Cl)c(Cl)c(Cl)c(Cl)c1Cl (configuration not stated) | inactive |

Dear all, I need the recorded test outcome for Cc1ncc(CSC(=N)N)n1Cc1ccccc1 , thank you.
inactive

Dear all, I need the recorded test outcome for CNC(=O)Nc1cc2c3c(c1)CCCN3CCC2 , thank you.
inactive

Dear all, I need the recorded test outcome for COc1cc(-c2ccccc2)c(OC)cc1CCl , thank you.
inactive

Dear all, I need the recorded test outcome for CN1CCN(C(=S)N(C(=O)c2ccc(Cl)cc2)C2CCCCC2)CC1 , thank you.
inactive

Dear all, I need the recorded test outcome for COc1cc(NC(C)=O)ccc1C(=O)N/N=C/c1ccc(Cl)cc1Cl , thank you.
inactive

This collection of values is drawn from ChEMBL document CHEMBL1201862.
